molecular target: human MMP-9 (Homo sapiens); construct: purchased R&D Systems, Minneapolis; assay: Determination of MMP inhibitory potency, MMP-9; assay type: biochemical
Sequence (P14780 94-707): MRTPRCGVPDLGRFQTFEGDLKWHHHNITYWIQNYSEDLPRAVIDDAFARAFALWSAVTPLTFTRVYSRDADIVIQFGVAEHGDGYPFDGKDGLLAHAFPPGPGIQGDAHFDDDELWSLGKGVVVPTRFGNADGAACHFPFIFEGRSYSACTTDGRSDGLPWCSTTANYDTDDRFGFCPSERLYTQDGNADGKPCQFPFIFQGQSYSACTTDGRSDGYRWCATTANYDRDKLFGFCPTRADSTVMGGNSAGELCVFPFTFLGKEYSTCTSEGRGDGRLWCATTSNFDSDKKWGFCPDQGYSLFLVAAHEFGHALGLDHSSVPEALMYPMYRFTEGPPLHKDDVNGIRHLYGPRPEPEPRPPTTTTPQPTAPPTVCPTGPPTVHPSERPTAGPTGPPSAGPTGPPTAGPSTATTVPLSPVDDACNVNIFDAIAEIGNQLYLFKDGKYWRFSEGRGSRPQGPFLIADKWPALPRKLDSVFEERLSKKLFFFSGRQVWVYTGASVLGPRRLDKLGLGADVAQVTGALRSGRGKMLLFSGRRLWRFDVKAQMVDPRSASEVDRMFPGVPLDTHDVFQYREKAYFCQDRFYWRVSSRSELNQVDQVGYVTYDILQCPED
Measured Attribute: pIC50
In simple prose, pIC50 is minus the logarithm base ten of a concentration in moles per litre.

Q: Give me measured pIC50, please, for this molecule: N[C@H]1CCCC[C@H]1NC(=O)P(=O)(O)O (relative stereo) [YK-162, reference compound]
Result: 4.70

###

molecular target: MMP-2 (Homo sapiens); experiment: Determination of MMP inhibitory potency, MMP-2; type: biochemical; parameters: purchased R&D Systems, Minneapolis
Sequence (P08253 110-660): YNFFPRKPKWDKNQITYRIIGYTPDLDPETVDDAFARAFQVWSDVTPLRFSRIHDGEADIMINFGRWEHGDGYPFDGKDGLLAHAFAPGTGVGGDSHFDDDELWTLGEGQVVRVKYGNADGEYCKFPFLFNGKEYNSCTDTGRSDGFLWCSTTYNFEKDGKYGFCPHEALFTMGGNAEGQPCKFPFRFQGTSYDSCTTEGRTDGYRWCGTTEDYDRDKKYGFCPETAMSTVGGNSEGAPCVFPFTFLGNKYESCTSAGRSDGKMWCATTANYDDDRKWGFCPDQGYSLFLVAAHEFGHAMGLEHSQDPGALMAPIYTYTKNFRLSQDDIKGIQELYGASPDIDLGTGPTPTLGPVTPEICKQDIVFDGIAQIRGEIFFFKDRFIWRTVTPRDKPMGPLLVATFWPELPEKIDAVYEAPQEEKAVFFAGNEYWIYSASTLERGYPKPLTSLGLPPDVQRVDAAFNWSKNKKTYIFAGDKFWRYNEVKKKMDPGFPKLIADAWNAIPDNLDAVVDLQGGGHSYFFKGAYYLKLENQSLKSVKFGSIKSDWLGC
Measured Attribute: pIC50
In simple prose, pIC50 is minus the logarithm base ten of a concentration in moles per litre.

Q: State, for MMP-2 (Homo sapiens), measured pIC50 of the compound listed here: N[C@H]1CCCC[C@H]1NC(=O)P(=O)(O)O (relative stereo) [YK-162, reference compound]
Result: 5.40
